# System: Streptococcus pneumoniae
# protocol description: Minimum inhibitory concentration against Streptococcus pneumoniae OC4421
test readout: MIC
Answer with the figure and its unit, nothing else.

Examples with their reported MIC follow.
compound	MIC
CC[C@H]1OC(=O)C(C)C(=O)[C@H](C)[C@@H](O[C@@H]2O[C@H](C)C[C@H](N(C)C)[C@H]2O)[C@](C)(OC(=O)N/C=C/c2ccc(-n3ccnc3)cc2)C[C@@H](C)C(=O)[C@H](C)[C@H]2NC(=O)O[C@@]21C (some centres undefined)	0.25 µg/mL
CC[C@H]1OC(=O)C(C)C(=O)[C@H](C)[C@@H](O[C@@H]2O[C@H](C)C[C@H](N(C)C)[C@H]2O)[C@](C)(OC(=O)N/C=C/c2ccc(-c3ncccn3)cc2)C[C@@H](C)C(=O)[C@H](C)[C@H]2NC(=O)O[C@@]21C (some centres undefined)	0.06 µg/mL
CC[C@H]1OC(=O)C(C)C(=O)[C@H](C)[C@@H](O[C@@H]2O[C@H](C)C[C@H](N(C)C)[C@H]2O)[C@](C)(OC(=O)N/C=C/c2ccc3cccnc3c2)C[C@@H](C)C(=O)[C@H](C)[C@H]2NC(=O)O[C@@]21C (some centres undefined)	0.03 µg/mL

We now examine a further compound.
Q: Name the recorded MIC for CC[C@H]1OC(=O)[C@H](C)[C@@H](O[C@H]2C[C@@](C)(OC)[C@@H](O)[C@H](C)O2)[C@H](C)[C@@H](O[C@@H]2O[C@H](C)C[C@H](N(C)C)[C@H]2O)[C@](C)(O)C[C@@H](C)C(=O)[C@H](C)[C@@H](O)[C@]1(C)O .
Result: 4 µg/mL

---

Reported MIC by item:
# Test system: Staphylococcus aureus
# protocol description: Minimum inhibitory concentration against Staphylococcus aureus OC4172
# Assay type: functional
Lab book: enter the figure in µg/mL, no units written.

Q: Name the recorded MIC for CC[C@H]1OC(=O)C(C)C(=O)[C@H](C)[C@@H](O[C@@H]2O[C@H](C)C[C@H](N(C)C)[C@H]2O)[C@](C)(OC(=O)Nc2ccccc2)C[C@@H](C)C(=O)[C@H](C)[C@H]2NC(=O)O[C@@]21C (stereo partly specified) .
Result: 2

Q: Ok, now CC[C@H]1OC(=O)C(C)C(=O)[C@H](C)[C@@H](O[C@@H]2O[C@H](C)C[C@H](N(C)C)[C@H]2O)[C@](C)(OC(=O)N/C=C/c2ccc(-c3cnccn3)cc2)C[C@@H](C)C(=O)[C@H](C)[C@H]2NC(=O)O[C@@]21C (stereo partly specified)
Result: 0.12

---

# Tested on: Streptococcus pneumoniae
# protocol description: Minimum inhibitory concentration against Streptococcus pneumoniae OC4421
test readout: MIC

compound	test readout	result
CC[C@H]1OC(=O)C(C)C(=O)[C@H](C)[C@@H](O[C@@H]2O[C@H](C)C[C@H](N(C)C)[C@H]2O)[C@](C)(OC(=O)N/C=C/c2ccc(-c3ccncc3)cc2)C[C@@H](C)C(=O)[C@H](C)[C@H]2NC(=O)O[C@@]21C (some centres not stated)	MIC	0.12 mg/L

We now examine a further compound.
Q: For the record CC[C@H]1OC(=O)C(C)C(=O)[C@H](C)[C@@H](O[C@@H]2O[C@H](C)C[C@H](N(C)C)[C@H]2O)[C@](C)(OC(=O)NCCc2ccccc2)C[C@@H](C)C(=O)[C@H](C)[C@H]2NC(=O)O[C@@]21C (some centres not stated) , what value of MIC is listed for Streptococcus pneumoniae?
Result: 0.12 mg/L

---

# Test system: Haemophilus influenzae
test readout: MIC (µg/mL)
Lab book: enter the figure in µg/mL, no units written.

Q: Name the recorded MIC for CC[C@H]1OC(=O)C(C)C(=O)[C@H](C)[C@@H](O[C@@H]2O[C@H](C)C[C@H](N(C)C)[C@H]2O)[C@](C)(OC(=O)N/C=C/c2ccc(-c3ccncc3)cc2)C[C@@H](C)C(=O)[C@H](C)[C@H]2NC(=O)O[C@@]21C (some centres undefined) .
Result: 8

Q: Ok, now CC[C@H]1OC(=O)C(C)C(=O)[C@H](C)[C@@H](O[C@@H]2O[C@H](C)C[C@H](N(C)C)[C@H]2O)[C@](C)(OC(=O)N/C=C/c2ccc(-c3cccnc3)cc2)C[C@@H](C)C(=O)[C@H](C)[C@H]2NC(=O)O[C@@]21C (some centres undefined)
Result: 4

Q: Ok, now CC[C@H]1OC(=O)C(C)C(=O)[C@H](C)[C@@H](O[C@@H]2O[C@H](C)C[C@H](N(C)C)[C@H]2O)[C@](C)(OC(=O)N/C=C/c2ccc(-c3ncccn3)cc2)C[C@@H](C)C(=O)[C@H](C)[C@H]2NC(=O)O[C@@]21C (some centres undefined)
Result: 4

Q: Ok, now CC[C@H]1OC(=O)C(C)C(=O)[C@H](C)[C@@H](O[C@@H]2O[C@H](C)C[C@H](N(C)C)[C@H]2O)[C@](C)(OC(=O)N/C=C/c2ccc(-n3cccn3)cc2)C[C@@H](C)C(=O)[C@H](C)[C@H]2NC(=O)O[C@@]21C (some centres undefined)
Result: 4

---

# System: Staphylococcus aureus
# protocol description: Minimum inhibitory concentration against Staphylococcus aureus OC4172
# Assay type: functional
test readout: MIC (µg/mL)
Lab book: enter the figure in µg/mL, no units written.

compound	MIC, µg/mL
CC[C@H]1OC(=O)C(C)C(=O)[C@H](C)[C@@H](O[C@@H]2O[C@H](C)C[C@H](N(C)C)[C@H]2O)[C@](C)(OC(=O)N/C=C/c2ccc3ccccc3n2)C[C@@H](C)C(=O)[C@H](C)[C@H]2NC(=O)O[C@@]21C (some centres not stated)	0.25

We now examine a further compound.
Q: Name the recorded MIC for CC[C@H]1OC(=O)C(C)C(=O)[C@H](C)[C@@H](O[C@@H]2O[C@H](C)C[C@H](N(C)C)[C@H]2O)[C@](C)(OC(=O)NCc2ccccc2)C[C@@H](C)C(=O)[C@H](C)[C@H]2NC(=O)O[C@@]21C (some centres not stated) .
Result: 4

---

# Tested on: Streptococcus pneumoniae
# protocol description: Minimum inhibitory concentration against Streptococcus pneumoniae OC4421
Reported MIC by item:
Lab book: enter the figure in µg/mL, no units written.

Examples with their reported MIC follow.
molecule	quantity unit	MIC
CC[C@H]1OC(=O)[C@H](C)C(=O)[C@H](C)[C@@H](O[C@@H]2O[C@H](C)C[C@H](N(C)C)[C@H]2O)[C@](C)(OC)C[C@@H](C)C(=O)[C@H](C)[C@H]2N(CCCCn3cnc(-c4cccnc4)c3)C(=O)O[C@]12C [TELITHROMYCIN]	µg/mL	0.12
CC[C@H]1OC(=O)C(C)C(=O)[C@H](C)[C@@H](O[C@@H]2O[C@H](C)C[C@H](N(C)C)[C@H]2O)[C@](C)(OC(N)=O)C[C@@H](C)C(=O)[C@H](C)[C@H]2NC(=O)O[C@@]21C (some centres undefined)	µg/mL	2
CC[C@H]1OC(=O)C(C)C(=O)[C@H](C)[C@@H](O[C@@H]2O[C@H](C)C[C@H](N(C)C)[C@H]2O)[C@](C)(OC(=O)N/C=C/c2ccccc2)C[C@@H](C)C(=O)[C@H](C)[C@H]2NC(=O)O[C@@]21C (some centres undefined)	µg/mL	0.06

We now examine a further molecule.
Q: Name the recorded MIC for CC[C@H]1OC(=O)C(C)C(=O)[C@H](C)[C@@H](O[C@@H]2O[C@H](C)C[C@H](N(C)C)[C@H]2O)[C@](C)(OC(=O)N/C=C/c2ccc(-c3ccccn3)cc2)C[C@@H](C)C(=O)[C@H](C)[C@H]2NC(=O)O[C@@]21C (some centres undefined) .
Result: 0.06

---

Reported MIC by item:
# Tested on: Streptococcus pneumoniae
# protocol description: Minimum inhibitory concentration against Streptococcus pneumoniae OC4421
Lab book: enter the figure in mg/L, no units written.

Examples with their reported MIC follow.
compound	target system	MIC (mg/L)
CC[C@H]1OC(=O)C(C)C(=O)[C@H](C)[C@@H](O[C@@H]2O[C@H](C)C[C@H](N(C)C)[C@H]2O)[C@](C)(OC(=O)N/C=C/c2ccc3ccccc3n2)C[C@@H](C)C(=O)[C@H](C)[C@H]2NC(=O)O[C@@]21C (some centres undefined)	Streptococcus pneumoniae	0.06
CC[C@H]1OC(=O)C(C)C(=O)[C@H](C)[C@@H](O[C@@H]2O[C@H](C)C[C@H](N(C)C)[C@H]2O)[C@](C)(OC(=O)NCc2ccccc2)C[C@@H](C)C(=O)[C@H](C)[C@H]2NC(=O)O[C@@]21C (some centres undefined)	Streptococcus pneumoniae	0.25
CC[C@H]1OC(=O)C(C)C(=O)[C@H](C)[C@@H](O[C@@H]2O[C@H](C)C[C@H](N(C)C)[C@H]2O)[C@](C)(OC(=O)N/C=C/c2ccc(-n3cccn3)cc2)C[C@@H](C)C(=O)[C@H](C)[C@H]2NC(=O)O[C@@]21C (some centres undefined)	Streptococcus pneumoniae	0.06

Q: For the record CC[C@H]1OC(=O)C(C)C(=O)[C@H](C)[C@@H](O[C@@H]2O[C@H](C)C[C@H](N(C)C)[C@H]2O)[C@](C)(OC(=O)N/C=C/c2ccc(-c3cnccn3)cc2)C[C@@H](C)C(=O)[C@H](C)[C@H]2NC(=O)O[C@@]21C (some centres undefined) , what value of MIC is listed for Streptococcus pneumoniae?
Result: 0.12
